Reported Ki values, Human immunodeficiency virus type 1 protease (Human immunodeficiency virus 1).
quantity: Ki (nM)

// solved cases for Ki follow
compound	unitsOfMeasure	Ki
CC[C@H](C)[C@H](NC(=O)[C@H](C(C)C)[C@H](O)[C@H](O)[C@H](CC(C)C)NC(=O)[C@H](Cc1c[nH]cn1)NC(=O)[C@H](Cc1ccccc1)NC(=O)OC(C)(C)C)C(=O)NCc1ccccn1	nM	501
CC(C)(C)OC(=O)N[C@@H](Cc1ccccc1)[C@@H](O)C(=O)N[C@@H](CCC(=O)O)C(=O)N[C@@H](Cc1ccccc1)C(=O)O (stereo in doubt; 76)	nM	24000

[P] CCC(C)CNC(=O)[C@H](C(C)C)[C@@H](O)[C@H](O)[C@H](CC(C)C)NC(=O)[C@H](Cc1c[nH]cn1)NC(=O)[C@H](Cc1ccccc1)NC(=O)OC(C)(C)C (stereo partly specified)
[Q] CC(C)[C@H](NC(=O)OCc1ccccc1)C(=O)N[C@@H](Cc1ccccc1)C(=O)C(F)(F)CCc1ccccc1 (stereo in doubt; 17)
[R] CC(C)(C)OC(=O)N[C@@H](Cc1ccccc1)[C@H](O)C(=O)N[C@@H](CCC(=O)O)C(=O)N[C@@H](Cc1ccccc1)C(=O)O
[S] CC[C@H](C)[C@H](NC(=O)[C@H](C(C)C)[C@@H](O)[C@H](O)[C@H](CC(C)C)NC(=O)[C@H](Cc1c[nH]cn1)NC(=O)[C@H](Cc1ccccc1)NC(=O)OC(C)(C)C)C(=O)NCc1ccccn1
Request: Arrange items by their Ki values in increasing order. Show the ranking through the labels, in the order asked for.
Result: Q, S, P, R
